Reference source for all entries: BigSolDB 2.1

details: in THF, 303.15 K
assay_endpoint: solubility (mole fraction)

Query: Please look at this molecule and report its solubility (mole fraction): Nc1ccc(N2CCOCC2=O)cc1
Response: 0.00542

---

conditions: in methanol, 288.15 K
assay_endpoint: solubility (mole fraction)
API doc: respond with a numeric literal and nothing else, no unit.

Query: Please look at this molecule and report its solubility (mole fraction): Nc1ccc(N2CCOCC2=O)cc1
Response: 0.00285

---

settings: in THF, 298.15 K
assay_endpoint: solubility (mole fraction)
API doc: respond with a numeric literal and nothing else, no unit.

Query: Please look at this compound and report its solubility (mole fraction): Nc1ccc(N2CCOCC2=O)cc1
Response: 0.00423

---

conditions: in methanol, 313.15 K
assay_endpoint: solubility (mole fraction)
API doc: respond with a numeric literal and nothing else, no unit.

Query: Please look at this compound and report its solubility (mole fraction): Nc1ccc(N2CCOCC2=O)cc1
Response: 0.00955

---

details: in methanol, 333.15 K
assay_endpoint: solubility (mole fraction)
API doc: respond with a numeric literal and nothing else, no unit.

Query: Please look at this molecule and report its solubility (mole fraction): Nc1ccc(N2CCOCC2=O)cc1
Response: 0.0239

---

conditions: in ethanol, 328.15 K
assay_endpoint: solubility (mole fraction)
API doc: respond with a numeric literal and nothing else, no unit.

Query: Please look at this molecule and report its solubility (mole fraction): Nc1ccc(N2CCOCC2=O)cc1
Response: 0.00928

---

details: in ethyl acetate, 278.15 K
assay_endpoint: solubility (mole fraction)
API doc: respond with a numeric literal and nothing else, no unit.

Query: Please look at this compound and report its solubility (mole fraction): Nc1ccc(N2CCOCC2=O)cc1
Response: 0.000559

---

conditions: in THF, 333.15 K
assay_endpoint: solubility (mole fraction)
API doc: respond with a numeric literal and nothing else, no unit.

Query: Please look at this compound and report its solubility (mole fraction): Nc1ccc(N2CCOCC2=O)cc1
Response: 0.0191

---

conditions: in ethanol, 288.15 K
assay_endpoint: solubility (mole fraction)
API doc: respond with a numeric literal and nothing else, no unit.

Query: Please look at this molecule and report its solubility (mole fraction): Nc1ccc(N2CCOCC2=O)cc1
Response: 0.00208

---

conditions: in THF, 278.15 K
assay_endpoint: solubility (mole fraction)

Query: Please look at this compound and report its solubility (mole fraction): Nc1ccc(N2CCOCC2=O)cc1
Response: 0.00138

---

settings: in ethyl acetate, 298.15 K
assay_endpoint: solubility (mole fraction)
API doc: respond with a numeric literal and nothing else, no unit.

Query: Please look at this compound and report its solubility (mole fraction): Nc1ccc(N2CCOCC2=O)cc1
Response: 0.00196
